Tested on: Cryptococcus neoformans
Details: Concentration 20 uM; ASSAY_TEST Inhibition of Fungal Growth; detection method Resazurin; Absorption (OD600-OD570); plate type 384well; NBS; CORNING #3640
Description: Antifungal activity against Cryptococcus neoformans H99 ATCC 208821 (CO-ADD:FG_002); MIC in YNB media using NBS plates, by Resazurin OD(600-570)
Entries with a potency or affinity are not part of this list.
Assign 1.0 to entries whose Inhibition meets or exceeds -10%; assign 0.0 to the rest.

Example entries and their recorded answers appear below.
COc1cc([N+](=O)[O-])ccc1NC(=O)Oc1ccc(NC(C)=O)cc1 | 0.0
O=c1cc(-c2ccccc2)oc2ccc(O)cc12 [6-HYDROXYFLAVONE] | 0.0
COc1ccc(/N=N/c2ccc(N)nc2N)cc1 | 1.0
CCOc1cc2c(Cl)ncnc2c(OCC)c1OCC | 1.0
N=C(N)n1c(N)nc2ccccc2c1=O | 0.0
O=c1c(-c2ccc(O)cc2)coc2cc(O)cc(O)c12 | 1.0
O=[N+]([O-])c1ccc(NN=C(c2ccccc2)c2ccccc2)nc1 | 1.0
Cc1ccc(S(=O)(=O)NC(=O)Nc2nccs2)cc1 | 1.0

Query :: Decide: is the reported value of Inhibition for CC1=CC(=C2C=CC(=O)C=C2)C=C(C)N1C equal to or greater than -10%?
Result :: 0.0

Query :: Could you verify whether the entry CN1CCC=C(C(=O)N2c3ccccc3Sc3ccc(Cl)cc32)C1.O=C(O)CCC(=O)O shows Inhibition of no less than -10%?
Result :: 1.0

Query :: Please indicate if the recorded Inhibition for Cn1c(=O)c2nc(CNc3ccc(C(=O)O)cc3)[nH]c2n(C)c1=O meets or exceeds -10%.
Result :: 1.0
